List of pKd values.
- test system: human alpha-synuclein monomer (human, UniProt P37840 1-140)
- test method notes: SPR (Biacore 8K), IgG captured on anti-human Fc, aSyn monomer injected
The quantity pKd is defined as the negative base-10 logarithm of the molar concentration.

Use the examples below as a reference point.
* HC5_LC_k3_4 (antibody, V domains shown) VH: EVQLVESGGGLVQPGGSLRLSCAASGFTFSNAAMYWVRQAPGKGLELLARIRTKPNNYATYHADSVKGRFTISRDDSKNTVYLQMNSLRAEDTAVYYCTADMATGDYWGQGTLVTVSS VL: EIVMTQSPATLSLSPGERATLSCKASQNINENLDWYQQKPGQAPRPLIYSTNNLKTGIPARFSGSGSGTDFTLTISSLQPEDFAVYYCYQYKSAWTFGQGTKVEIK | 9.82
* HC5_LC_k3_5 (antibody, V domains shown) VH: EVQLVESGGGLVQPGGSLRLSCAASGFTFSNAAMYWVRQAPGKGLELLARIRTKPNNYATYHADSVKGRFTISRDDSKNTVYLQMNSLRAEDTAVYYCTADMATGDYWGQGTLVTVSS VL: EIVMTQSPATLSLSPGERATLSCKASQNINKQLDWYQQKPGQAPRPLIYSTNNLKTGIPARFSGSGSGTDFTLTISSLQPEDFAVYYCYQYKSAWTFGQGTKVEIK | 9.89

# query: pKd of entry HC6_LC_k3_11 (antibody, V domains shown) VH: EVQLVESGGGLVQPGGSLRLSCAASGFTFSNAAMYWVRQAPGKGLELVSRIRTKPNNYATYHADSVKGRFTISRDDSKNTLYLQMNSLRAEDTAVYYCTADMATGDYWGQGTLVTVSS VL: EIVMTQSPATLSLSPGERATLSCKASQNISNQLDWYQQKPGQAPRPLIYSTNNLKTGIPARFSGSGSGTDFTLTISSLQPEDFAVYYCYQYKSAWTFGQGTKVEIK
9.62

Consider the binder shown here: HC6_LC_k3_10 (antibody, V domains shown) VH: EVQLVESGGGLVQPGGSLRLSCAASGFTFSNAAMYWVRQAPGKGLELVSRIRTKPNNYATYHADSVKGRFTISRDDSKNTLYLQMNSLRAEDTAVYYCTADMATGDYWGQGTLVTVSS VL: EIVMTQSPATLSLSPGERATLSCKASQNISNDLDWYQQKPGQAPRPLIYSTNNLKTGIPARFSGSGSGTDFTLTISSLQPEDFAVYYCYQYKSAWTFGQGTKVEIK What is its recorded pKd?
9.77

Please look up its pKd: HC6_LC_k3_6 (antibody, V domains shown) VH: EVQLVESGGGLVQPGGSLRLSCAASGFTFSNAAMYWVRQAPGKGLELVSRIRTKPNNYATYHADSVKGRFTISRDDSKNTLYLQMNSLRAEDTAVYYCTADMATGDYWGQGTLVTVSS VL: EIVMTQSPATLSLSPGERATLSCKASANINKQLDWYQQKPGQAPRPLIYSTNNLKTGIPARFSGSGSGTDFTLTISSLQPEDFAVYYCYQYKSAWTFGQGTKVEIK
9.85
